- Test system: HCT-116 human colon carcinoma cells
- METHOD: In vitro cytotoxicity, XTT assay in HCT-116 human colon carcinoma cells (72 h)
- Type: cell-based
- EXPERIMENTAL_CONDITIONS: Homo sapiens; HCT-116, XTT, 72 hours, 4000 cells/well; read-out: IC50 HCT-116 (drug concentration required to inhibit cell proliferation to 50% of untreated control cells)
pIC50: −log10 of the molar value.
OUTCOME_MEASURE: pIC50

SMILES_INPUT	ASSAY_RESULT
CO[C@@]12CO[C@@H]1C[C@H](O)[C@@]1(C)C(=O)[C@H](OC(C)=O)C3=C(C)[C@@H](OC(=O)[C@H](O)[C@@H](NC(=O)OC(C)(C)C)c4ccco4)C[C@@](O)([C@@H](OC(=O)c4ccccc4)[C@H]21)C3(C)C	8.43
CO[C@@]12CO[C@@H]1C[C@H](O)[C@@]1(C)C(=O)[C@H](OC(C)=O)C3=C(C)[C@@H](OC(=O)[C@H](O)[C@@H](NC(=O)OC(C)(C)C)c4ccccc4)C[C@@](O)([C@@H](OC(=O)c4ccccc4)[C@H]21)C3(C)C	8.66
CO[C@@]12CO[C@@H]1C[C@H](O)[C@@]1(C)C(=O)[C@H](OC(C)=O)C3=C(C)[C@@H](OC(=O)[C@H](O)[C@@H](NC(=O)c4ccccc4)c4ccccc4)C[C@@](O)([C@@H](OC(=O)c4ccccc4)[C@H]21)C3(C)C	7.46
